Data credit: the supplement of paper PMC10567573

Reported protein stability index values are given for each entry in this list.
# protocol_description: protein stability index of a GFP-peptide fusion (GPS, HEK-293T) (PSI 1-6); higher = more stable;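 also: 24-mer peptide tiles fused after GFP, lentivirally expressed, FACS-sorted into six equal bins by GFP/DsRed ratio, decoded by Illumina sequencing, PSI is the read-weighted mean bin number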
# assay_setup: treatment: DMSO; c terminus: a fixed tail appended
Give the value as a plain number.

// worked examples, protein stability index included
sequence	protein stability index
MLAEIFCQTGGVEDQEEWHAQVVE [ZBED1]	3.05
QKTLQVKCQHYKKKRTEQEETIAS [CEP70]	4.33
SSGEDKENDGFVFKMPWKPTHPSS [CDC25B]	3.92
ECMLLVFGIDVKEVDPTGHSFVLV [MAGEA10]	2.82
RRCGKCFCDRCCSQKVPLRRMCFV [ZFYVE21]	2.31

Look up protein stability index of KCLVTEAQTLLRLSGVQRVESVFF [RSAD1] and report it. 2.53

Retrieve protein stability index measured for VKMLGSPVDSVLFYAITTLHNLLL [CTNNB1] and print it. 2.47

Consider the sequence MTEKQQEEAEWESINVLLMMHGLK [CEP70] . State its measured protein stability index. 2.62

Output measured protein stability index for this item: GEYIYTGNAKGKILVLKTDSQDLV [RBBP5] 2.25

Output protein stability index of KLKALHVDSAEYSCLKAIVLFTSD [NR2F2] 2.45

====

# protocol_description: protein stability index of a GFP-peptide fusion (GPS, HEK-293T) (PSI 1-6); higher = more stable
# assay_setup: treatment: MLN4924 1 uM, 8 h; c terminus: a fixed tail appended
Please map values of protein stability index to classes as shown: L: < 3; M: ≥ 3 and < 4; H: ≥ 4

sequence	class
MRPTLIDLLPTFRHTLQKLTCEFN [FBXO39]	L
QRAWVRALNEQACRNGSSIQIAFE [C2CD2L]	L
AEFIESGQYRANEGTSSIVMEIQK [TAF7L]	H

Into which category would you place KLALDMEISAYRKLLQGEEERLKL [LMNB1] ? M

Assign a bin to PDSHQKRPQHSHSNKKRPSLDGRD [ELOA2] H

====

# protocol_description: protein stability index of a GFP-peptide fusion (GPS, HEK-293T) (PSI 1-6); higher = more stable
# assay_setup: treatment: MLN4924 1 uM, 8 h; c terminus: a fixed tail appended
Decide by protein stability index: equal to or exceeding 3 means YES, less means NO.

sequence	class
AGEDNDDLIDNLKEAQYIRTERVE [PCMTD1]	YES
GILERYWLSSRAAAIKVNDSVPFH [MYORG]	NO

Exam item: decide whether the reported protein stability index for VGITVLNLCALSVDRYRAVASWSR [EDNRA] is at least 3. NO

# check: protein stability index of MGGSGSRLSKELLAEYQDLTFLTK [CIB1] is greater than or equal to 3 YES

Determine whether measured protein stability index meets or exceeds 3 for SLRRRGASAAARLGCNRQSWCLKR [TRIM14] YES

I'd appreciate it if you could say whether LVKKYGTKQWTLIAKHLKGRLGKQ [MYBL2] has protein stability index at least equal to 3. NO

Form field: protein stability index at least 3? Entry: RRMAAEATEWQKAGAPPPSGSAVS [SRPK2] YES

// inclusive: protein stability index at least 3? input: IVAGGYDERVLENVEHYQELKKMV [ALG2] YES

Please tell me: is the sequence VKFISNPPSMVAAGSVVAAVQGLN [CCND1] at or over 3 in terms of protein stability index? NO

Kindly determine if protein stability index recorded for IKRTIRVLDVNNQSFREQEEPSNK [NET1] is above or exactly 3. YES

Please indicate if the recorded protein stability index for HHVPGGGNVKIDSQKLNFREHAKA [MAP2] meets or exceeds 3. YES

Exam item: decide whether the reported protein stability index for NMCLVATGGADAYYEMGIHCWDVA [IMPA1] is at least 3. NO

Would you say SETPQETYRKVMNWKETLVFPPEV [STK38L] shows protein stability index at minimum 3? YES
